- Test system: Rap-1
- EXPERIMENT NOTES: Rap-1 activation assay, ACHN cells
- Assay type: cell-based, human
- EXPERIMENTAL CONTEXT: 10 μM, 1 hour
- Method: The effect of B2AR stimulation on Rap1 was investigated using the following methods: A Rap-1 activation assay kit (Upstate, Temecula, Calif.) was used according to protocol to determine if stimulation of the B2AR by ARA-211, and subsequent downstream signaling resulting in inhibition of P-Erk 1/2, is mediated by activation of Rap-1 directly by the Rap-1 guanine nucleotide exchange factor Epac. […] Cells were incubated with drugs for 1 hour unless noted otherwise. […]
Where a name gives a salt, the structure may show the parent alone.

COMPOUND	Rap-1 activation (GTP-loaded Rap-1)
CO[C@@H]1[C@@H]2OP(=O)(O)OC[C@H]2O[C@H]1n1c(Sc2ccc(Cl)cc2)nc2c(N)ncnc21	activated Rap-1
CC(C)(C)NCC(O)c1ccc(O)c(CO)n1 (stereo not shown) [ARA-211, dihydrochloride]	activated Rap-1
CC(C)NCC(O)c1ccc(O)c(O)c1 (stereo not shown)	activated Rap-1

Values from patent US7713960B2
